Field: pEC50. Provide a value for each of the compounds that follow.
biological target: Ras GEF SOS (Son of Sevenless) (Homo sapiens); assay: SOS-mediated nucleotide exchange on Ras (BODIPY-GDP fluorescence); details: SOS-mediated exchange of BODIPY-GDP for GTP on Ras
Sequence (Q07889 564-1049 limits assumed): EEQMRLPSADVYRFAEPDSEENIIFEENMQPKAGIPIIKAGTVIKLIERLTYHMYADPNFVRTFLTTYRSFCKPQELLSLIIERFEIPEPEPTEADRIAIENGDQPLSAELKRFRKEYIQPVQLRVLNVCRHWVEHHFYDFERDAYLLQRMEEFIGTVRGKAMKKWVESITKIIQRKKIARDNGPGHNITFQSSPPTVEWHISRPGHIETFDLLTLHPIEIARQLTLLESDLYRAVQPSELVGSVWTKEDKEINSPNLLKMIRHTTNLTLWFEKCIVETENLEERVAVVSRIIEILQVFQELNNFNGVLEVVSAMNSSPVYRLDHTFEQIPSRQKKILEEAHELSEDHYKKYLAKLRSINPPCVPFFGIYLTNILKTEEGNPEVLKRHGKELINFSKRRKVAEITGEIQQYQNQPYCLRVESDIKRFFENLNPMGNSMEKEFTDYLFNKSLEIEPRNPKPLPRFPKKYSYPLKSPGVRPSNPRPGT
Sequence (P01112 1-166 partner limits assumed): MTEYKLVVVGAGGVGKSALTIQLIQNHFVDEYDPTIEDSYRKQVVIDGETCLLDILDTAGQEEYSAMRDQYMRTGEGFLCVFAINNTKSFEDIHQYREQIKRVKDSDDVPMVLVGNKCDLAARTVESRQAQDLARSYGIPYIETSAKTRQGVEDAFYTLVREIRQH
pEC50: −log10 of the molar value. Structures can show the parent of a compound that is named as a salt.

IN: Param item = Cc1cc2nc(N3CCNCC3)n(Cc3cccc(Br)c3)c2cc1C [Example 34, trifluoroacetate] ; retrieve measured pEC50.
OUT: 4.52 to 5.30

IN: Param item = Fc1ccc(Cn2c(N3CCNCC3)nc3ncccc32)cc1 ; retrieve measured pEC50.
OUT: 4.52 to 5.30

IN: Param item = Cc1cc2c(nc(NCCN)n2Cc2ccc(F)c(C)c2)c(-c2ccccc2C)n1 ; retrieve measured pEC50.
OUT: 4.52 to 5.30

IN: Param item = Cc1cc(Cn2c(N3CCNCC3)nc3ccc(OC(C)C(F)(F)F)nc32)ccc1F (centres unmarked) ; retrieve measured pEC50.
OUT: 4.52 to 5.30

IN: Param item = Cc1cc(Cn2c(N3CCNCC3)nc3c(N4CCCCC4)cc(Cl)cc32)cc(C)c1F ; retrieve measured pEC50.
OUT: 5.30 to 6.00
